Test system: MS2 coat protein
TEST PROTOCOL: apparent KD of MS2 coat protein; designed switch direction (-1 OFF switch, 1 ON switch): 1; higher = weaker reporter binding
DETAILS: input ligand: microRNA oligo, concentration not stated
VALUE KIND: apparent KD of MS2 coat protein (nM)
Your answer should be a plain number; it is taken to be in nM.

Which apparent KD of MS2 coat protein is reported for this sequence? UUGGUUGUCGUAGGAUAUGUAGGAUAUGCCUACAUGAGGAUCACCCAUGUUCGCAUGGCAGAAGGACAGAAGGACGAUGACCAU [pwkr ssNG2 2FMN + 1F5.19] (Eterna round: R96, puzzle: Same State NG 2)
20.5

Same question for AUAGUUGCCGAAGGAUAUGAUGAUGAUCACACAUCAGAAGGUCGGCUAUUGGGUGGACAUGAGGAUCACCCGUGUUCUUUGGUC (Eterna round: R96, puzzle: Same State NG 1) please.
79.5

Same question for GGUAAGAAUUAAGGAUAUCGAGUACAUAUGUUUAACAUGAGGAUCACCCAUGUGGGUUGCGGUAUCGAGAAGGUAAAAUAUAAG [Mat - same State NG 2 - JL mod - D64] (Eterna round: R96, puzzle: Same State NG 2) please.
26.4

Same question for GCCGGCUGGUGAGGAUAUGGCACCUUAUUGGUGCCAGAAGGCAUGUCAAUUGACAUGAGGAUCACCCAUGUAUUGUCGUUGGCG [salish99_SSNG1_r04_608] (Eterna round: R96, puzzle: Same State NG 1) please.
194

----------
Test system: MS2 coat protein
TEST PROTOCOL: apparent KD of MS2 coat protein; designed switch direction (-1 OFF switch, 1 ON switch): -1; higher = weaker reporter binding
DETAILS: input ligand: FMN 200 uM
VALUE KIND: apparent KD of MS2 coat protein (nM)
Your answer should be a plain number; it is taken to be in nM.

Which apparent KD of MS2 coat protein is reported for this sequence? CCGAACAUAGGAUAUACAUGAGGAUCACCCAUGUAUAUAAAAGGGUGUUCCAACUAAAGUAGAAGGAUGUAAGG [ExFusion 1 - Jieux - Exclusion 3] (Eterna round: R97, puzzle: Exclusion 3)
36.5

Same question for UCGAUGUGAGGAUAUAUUUUUUUUUUUCCUUAUGUUUUAUAACUUGAGGAUCACCCAAGUAGAAGGCGCUACGU [JR_Ex2_Sub063] (Eterna round: R97, puzzle: Exclusion 2) please.
70.6

Same question for UUUAAGUCAGGAUAUCGUUAAUUUAAUAAAUAAAUUUAAUUCGAGAAGGGACAUGAGGAUCACCCAUGUAAUUU [Ex4 #1] (Eterna round: R97, puzzle: Exclusion 4) please.
45.5

Same question for AAGAAGAGGUGAGGAUAUCGAAGUACAGGCUGGGACUCGGACUACAUGAGGAUCACCCAUGUAUACGAGAAGGCACUUCGAUAA [Quusatrare] (Eterna round: R96, puzzle: Exclusion NG 2) please.
12.6

Same question for AUGUGCACGCUGCGAUCCUACAUGAGGAUCACCCAUGUGGUCUGGUGGCGUGGGUCACCGGACUUGGCUCGUCUUGG [salish99_S_TOV1_R5_075] (Eterna round: R97, puzzle: Sensor, turn-off variant 1) please.
139

Same question for UGCCUAUGAGGAUAUACGUAGAAAUAGAUUCAUGUAAAACUACAUGAGGAUCACCCAUGUAGAAGGCAUGGGCU [Mat - Exclusion 2 - JL Mod - D49] (Eterna round: R97, puzzle: Exclusion 2) please.
27.5

Same question for UCUGCAACGCAAGGAUAUCUUAGAGUUGAAGAAAGAGAAGGUGCAGGUGAUAACAUGCCCGUAACAUGAGGAUCACCCAUGUAA [Eternabot solution 48] (Eterna round: R96, puzzle: Exclusion NG 1) please.
96.1

Same question for CAUUGUUACGGAGGAUAUCGUAUUGAGAUACUAUGAGAAGGCCGAAUAAACAUGAGGAUCACCCAUGUGAGACGGAUGCUUGUG [Ex NG1 #35] (Eterna round: R96, puzzle: Exclusion NG 1) please.
33.1

Same question for AAAUACCGGUGAGGAUAUUUAUAAUAGAGCUUUAUGAUAUACAUGAGGAUCACCCAUGUUACUUUAAAGAAGGCAUCGGAAUAA [Mat - Exclusion NG 2 - Mod of JL - D93] (Eterna round: R96, puzzle: Exclusion NG 2) please.
15.4
